A collection of binders and their measured kon
# experimentalTarget: T1, Soluble heterodimeric CD3 protein (hCD3-epsilon/hCD3-delta) with either a human Fc tag (hFcΔAdp/hFc) or a … (human, UniProt P07766 23-126; P04234 22-105)
# T1 construct: also called hCD3ε/δ; not shown: Fc tag: human (hFcΔAdp/hFc)
# T1 sequence (P07766 23-126 limits assumed, stated change not applied, chain 1 of 2): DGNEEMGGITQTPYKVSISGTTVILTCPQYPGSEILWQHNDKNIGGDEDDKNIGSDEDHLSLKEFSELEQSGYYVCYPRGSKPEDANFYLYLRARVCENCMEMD
# T1 sequence (P04234 22-105 limits assumed, stated change not applied, chain 2 of 2): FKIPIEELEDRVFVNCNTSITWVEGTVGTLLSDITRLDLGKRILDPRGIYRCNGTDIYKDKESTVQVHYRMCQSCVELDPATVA
# assayProcedure: SPR Biacore 25C antigen-capture
Form entry: value (M⁻¹ s⁻¹) — number only.

Below, 4 binders whose answers are already recorded.
Please fill in: kon reported for H2M2707N (antibody, mouse IgG2, V domains shown, H2M: mouse IgG2 Fc, human variable regions; divalent) VH: QVQLVESGGGVVQPGRSLRLSCIASGFTFRSYGMHWVRQAPGKGLEWVAMIYYDGNNKYYADSVRGRFTISRDNSKNTLYLQMNSLRADDTAVYFCARGPGYNWLDPWGQGTLVTVSS VL: EIVMTQSPATLSVSPGERATLSCRASQSVSSNLAWYQQKPGQAPRLLIYGASTRATGIPARFSGSGSGTEFTLTISSLQSEDFAVYYCQQYNNRPLTFGGGTKVEIK = 399000

Reported kon for H1H5778P (antibody, human IgG1, V domains shown, H1H: human IgG1 Fc; divalent) VH: EVQLVESGGGLVQPGRSLRLSCVASGFTFADFTMHWVRQAPGKGLEWVSGISWNSNSIDYADSVKGRFTISRDNAKKSLFLQMSSLRAEDTALYYCVKDRSGYSRFYYGMDVWGQGTTVTVSS VL: EIVMTQSPATLSVSPGERAILSCRASQNINSNLAWYQQKPGQAPRLLIYGASTRATGVPARFSGSGSGTEFTLTIRSLQSEDFAVYYCQQYYNWPITFGHGTRLEIK was 399000

For record H1H5799P (antibody, human IgG1, V domains shown, H1H: human IgG1 Fc; divalent) VH: QVQLVQSGAEVKKPGASVKVSCKASGYTFIGYYMHWVRQAPGQGLEWMGWINPKSGGTNYAQKFQGRVTMTGDTSISTAYMELSRLRSDDTAVFYCARMGDGAMFDYWGQGTLVTVSS VL: DIQMTQSPSSLSASVGDRVTITCRASQRISSYLNWYQQKAGKAPKVLIYTASSLQSGVPSRFSGSGSGTDFTLTISSLQPEDFATYYCQQSYSTPLTFGGGTKVEIK the listed kon is 718000

Record H1H5788P (antibody, V domains shown, H1H: human IgG1 Fc; divalent) VH: EVQLVESGGGLVQPGRSLRLSCAASGFTFDDYTMHWVRQAPGKGLEWVSGISWNSGSIGYADSVKGRFTISRDNAKNSLYLQMNSLRAEDTALFYCAKDQSGYGHYYYGMDVWGQGTTVTVSS VL: EIVMTQSPATLSVSPGERATLSCRASQSVSSNLAWYQQKPGQAPRLLIYGASTRATDIPARFSGSGSGTEFTLTISSLQSEDFAVYHCQQYNNWPLTFGGGTKVEIK . Reported kon: 70600

Next, consider the following binder.
Please fill in: kon reported for H1H5758B (antibody, human IgG1, V domains shown, H1H: human IgG1 Fc; divalent) VH: EVQLVESGGGVVQPGRSLRLSCAASGFTFSSYGMHWVRQAPGKGLEWVTVILHDGSNRYYADSVKGRFTISRDNSKNTLYLQMNILRAEDTAVYYCTKGAMVRGVPYNHYYGMDVWGQGTTVTVSS VL: DIVMTQSPSSLSASVGDRVTITCRASQGIRNDLGWYQQKPGKAPKRLIYAASNLQSGVPSRFSGSGSGTEFTLTISSLQPEDFATYYCLQHNSYPYTFGQGTKLEIKR = 142000
